Readout Type: melting point

Known results for compounds:
CCOC(=O)c1ccc(NC(=O)COC)cc1NC(=O)COC	90 to 91 °C
COc1cc(OC)cc(-c2nc[nH]c2-c2ccc(OC)c(O)c2)c1	181 to 182 °C
CN(C)CCCN1C(=O)C(NC(=O)Nc2ccccc2)C(=O)N(CC23CC4CC(CC(C4)C2)C3)c2ccccc21 (stereo not drawn)	138 to 140 °C
NCC(=O)NCC(=O)Nc1ccc([N+](=O)[O-])cc1C(=O)c1ccccc1	121 to 123 °C
O=C(O)CCc1cn(Cc2cc(OCc3csc(-c4ccccc4)n3)cc(OCc3csc(-c4ccccc4)n3)c2)cc1-c1ccccc1	78 to 79 °C

Provide melting point for all items below, preserving their order.
1. Cc1ccc(S(=O)(=O)Nc2nc(-c3cccc(-c4ccccc4)c3)cs2)cc1
2. CCCCOC(=O)c1ccc(Nc2ncc(C(=O)OCC)c(=O)[nH]2)cc1
3. C(=C(c1ccccc1)c1ccccc1)c1ccc2c(c1)Cc1ccccc1-2
4. CCN1CCC(n2nnnc2C2(c3cc(C(C)C)ccc3OC)C=CC(O)=CC2O)CC1 (stereo not drawn)
5. CN1C(=O)CCC2(C)c3ccc(Sc4cncc5ccccc45)cc3CCC12 (stereo not drawn)
6. COc1cccc(CC(=O)O)c1OCc1cc(OC(C)C)nn1Cc1ccc(Cl)cc1Cl
7. Cc1c(C)c2c(c(C)c1NC(=O)CC(C)(C)C)C(O)C(C)(C)O2 (stereo not drawn)

Response:
1. 153 to 155 °C
2. 281 to 283 °C
3. 136 to 138 °C
4. 144 to 147 °C
5. 161 to 163 °C
6. 127 to 128 °C
7. 204 to 206 °C

Provide melting point for all items below, preserving their order.
1. CC(C)(C)c1ccc(Cn2ccc3cc(Br)ccc32)cc1
2. CCOCc1nc2c(N)nc3ccccc3c2n1CC(C)(O)CC (stereo not drawn)
3. CCOC(=O)COc1ccccc1C(=O)Nc1ccccc1Sc1ccc(-c2nnn[nH]2)cc1
4. O=C(CN1CCSCC1)N1CCN(Cc2ccc3c(c2)-c2[nH]nc(-c4ccsc4)c2C3)CC1
5. O=C(OCc1ccccc1)N1CCc2c(sc3nc(CCl)c(Cl)c(-c4ccc(OCC(F)(F)F)cc4)c23)C1
6. Cc1c(-c2ccccc2)oc2c(C(O)CCCO)cccc2c1=O (stereo not drawn)

Response:
["108 to 109 °C", "189 to 191 °C", "155 to 157 °C", "226 to 228 °C", "166 to 167 °C", "133 to 134 °C"]

====

Non-standard residues stand in square brackets, D forms with d. Residues, ends and D or L forms follow the SMILES beside them. *: point of attachment. 1Nal = N[C@@H](Cc1cccc2ccccc12)C(=O)O; Sta = CC(C)C[C@H](N)[C@@H](O)CC(=O)O; Cbz = O=C(OCc1ccccc1)*; NHNH2 = NN*
Readout Type: melting point

Known results for compounds:
CCOc1ccc(C(=O)CBr)cc1C(=O)OC	147 to 148 °C
O=S(=O)(F)C=CNc1ccc(Cl)cc1	61 to 63 °C
O=C(O)c1ccccc1S(=O)c1cc(Cl)ccc1C(=O)O (stereo unspecified)	279 to 281 °C
Cc1cccc(NC(=O)OCc2cccc(O)c2)c1CNc1cccn2c(C)c(C)nc12	190 to 193 °C
CCCCCCCC(=O)N(C)Cc1cccc(-c2ccc(C=CC(=O)O)cc2)c1	124 to 125 °C

Provide melting point for all items below, preserving their order.
1. COc1ccnc(CCc2nc3cncnc3[nH]2)c1
2. CC1(C)CCC(=O)Nc2ccc(N)cc21
3. CC1=CC(=O)C=C2CC(C)C3C4CCC(=O)C4(C)CCC3C12C (stereo unspecified)
4. COc1cc2c(cc1O)CCN(Cc1ccccc1OC)C2
5. COC(=O)CCCC(=O)N(CCc1c[nH]c2ccccc12)CC1CC1

Response:
150 to 152 °C
168 °C
148 to 151 °C
128 to 129 °C
99 to 100 °C

Provide melting point for all items below, preserving their order.
1. Cc1ccc(C(=O)O)c([N+](=O)[O-])c1
2. O=Cc1cncc2ncc(-c3ccccc3)cc12
3. CNc1nccc(-c2cc(NCCCNc3ncnc4[nH]nc(Br)c34)c3cc(OC)ccc3c2)n1

Response:
156 to 157 °C
148 °C
145 to 148 °C

Provide melting point for all items below, preserving their order.
1. CC(C)Cn1cc2c(O)nc(O)nc2n1
2. CCN1C(=O)C(C)(C)C(=O)N(C)c2cc(CN(CCn3cc(C)c4occc4c3=O)Cc3cccnc3COC)ccc21

Response:
1. 328 to 330 °C
2. 104 to 111 °C

Provide melting point for all items below, preserving their order.
1. CCOCn1c(Sc2ccc(Cl)c(Cl)c2)cc(C#N)c1-c1ccc(Cl)cc1
2. Fc1ccc(-c2cc(C(F)(F)F)n3ncc(-c4cccnc4)c3n2)cc1Cl
3. CC(=O)N(C#N)C1(c2ccc(OCc3ccc4ccccc4n3)cc2)CCCCC1
4. C=CCNc1nc(NCC=C)nc(N2CCNCC2)n1
5. CC(C)C[C@H](NC(=O)[C@H](Cc1c[nH]cn1)NC(=O)[C@H](Cc1cccc2ccccc12)NC(=O)OCc1ccccc1)[C@@H](O)CC(=O)NN (Cbz-[1Nal]-His-[Sta]-NHNH2)

Response:
95 to 97 °C
190 °C
90 °C
93 to 94.5 °C
120 to 127 °C

Provide melting point for all items below, preserving their order.
1. O=S1(=O)C[C@H](O)[C@H](O)CS1
2. CN(N=[N+](C)[O-])c1ccccc1
3. NC(=O)c1cc2c(Oc3ccc(-n4ccnc4)cc3)cncc2s1
4. COc1cc(-c2nc(-c3ccc(N(C)C)cc3)c(C)s2)cc(OC)c1OC(C)=O
5. Cc1ccc2c(C#N)cn(-c3ccc(C(C)C)cc3Br)c2n1
6. NCC(=O)NC(Cc1ccccn1)c1ccccc1 (stereo unspecified)
7. O=C(Nc1ccc(Cl)cn1)c1cc(Cl)ccc1NCC1CCN(C2CCCCCC2)CC1

Response:
["131 to 132 °C", "55 to 56 °C", "310 to 312 °C", "247 to 249 °C", "176 °C", "75 to 77 °C", "170 to 172 °C"]

Provide melting point for all items below, preserving their order.
1. O=C(O)c1ccc(-c2ccc(Cl)cc2)c(O)c1
2. CS(=O)(=O)c1c(C(=O)c2cnoc2C2CC2)ccc(F)c1F
3. COc1cc2c(cc1OC)C(C)=[N+]([O-])C(c1ccco1)N2 (stereo unspecified)
4. COC(=O)c1cc2cc(OC)c(OC)cc2c(-c2ccnc(-n3c(=O)cc(C(=O)N4CCOCC4)c4ccccc43)c2)c1C(=O)OC
5. CCCCCC(CC(=O)Nc1cc(C(N)=O)ccc1C(C)(C)C)c1ccc(OCCCOCC)cc1OC (stereo unspecified)
6. O=C(O)Cc1ccc(NCCNC(=O)C2Cc3ccccc3N2S(=O)(=O)c2ccc(-c3cc(C(F)(F)F)ccc3Cl)cc2)cc1 (stereo unspecified)

Response:
199 °C
115 to 118 °C
191 to 195 °C
247 to 249 °C
135 to 136 °C
110 to 118 °C

Provide melting point for all items below, preserving their order.
1. Nc1cc(C=O)nc(C2CCC2)c1F
2. CN1C(=O)Cc2cc(Cl)ccc21
3. CC(C)[C@@H](N)C(=O)NCC(F)(F)F
4. CC(=O)C(CCC(=O)O)(CCC(=O)O)C(C)=O

Response:
134 to 135 °C
118 to 119 °C
43 to 47 °C
176 °C

Provide melting point for all items below, preserving their order.
1. CCCc1nc(N)nc(N)c1N1CCN(c2ccc(C(=O)OCC)cc2)CC1
2. O=C(NCCO)c1cc(C(=O)NCCO)cc([N+](=O)[O-])c1
3. O=C(O)[C@H](Cc1ccccc1)Nc1c(NCc2cccnc2)c(=O)c1=O
4. CC(C)(C)OC(=O)N1CCN(c2ccc(N3CC(CN=[N+]=[N-])OC3=O)cc2F)CC1 (stereo unspecified)

Response:
["215 to 216 °C", "151 °C", "259 to 261 °C", "101 to 104 °C"]
